Biological target: α-amylase
Assay: α-amylase enzyme inhibition assay (starch, dinitro-salicylic acid, 540 nm)
Assay type: biochemical
Details: Table 7 (Met series), read-out: IC50
measured.endpoint: pIC50
Kindly note that pIC50 refers to -log10 of the concentration in mol/L and answer with the value alone.

Known results for compounds:
C=NC(=N)NC(=N)N(C)C	3.15
CC(C)=NC(=N)NC(=N)N(C)C	3.13
CN(C)C(=N)N=C(N)N [Met, N,N-dimethyltriimidodicarbonic diamide, reference compound]	2.03
CN(C)C(=N)NC(=N)N=C(c1ccccc1)C(O)c1ccccc1 (stereo not drawn)	3.10
C/C(=N\C(=N)NC(=N)N(C)C)c1ccccc1	2.77

As a next step, examine the compound that follows.
Incoming: Item `CN(C)C(=N)NC(=N)N=C(c1ccccc1)c1ccccc1` has what recorded pIC50?
Outgoing: 2.85

###

Recorded measurements of IC50, one per entry
Target: α-glucosidase
Assay: α-glucosidase enzyme inhibition assay (starch substrate, anthrone reagent, 640 nm)
Assay type: biochemical
Conditions: Table 5 (MCu series), read-out: IC50
Experimental: The α-glucosidase-inhibitory activity of all derivatives of metformin was tested using the method previously described. Three test tubes were marked as test (T), blank (B), and control (C). […] The contents in the test tubes were boiled for 15 min, and the absorbance was read at a wavelength at 640 nm. The percentage inhibition was calculated using the following formula:Percentage inhibition = OD of control − OD of test tube/OD of control × 100.
Respond numerically; units are µM and should not be typed.

The cases that follow already have their IC50 on record.
CN(C)C(=N)NC(=N)N=CC=Cc1ccccc1.CN(C)C(=N)NC(=N)N=CC=Cc1ccccc1.O.O.O.O.O.O=S(=O)([O-])[O-].[Cu+2]	570
CN(C)C(=N)NC(=N)N=C(c1ccccc1)C(O)c1ccccc1.CN(C)C(=N)NC(=N)N=C(c1ccccc1)C(O)c1ccccc1.O.O.O.O.O.O=S(=O)([O-])[O-].[Cu+2] (centres unmarked)	200

Incoming: Look up IC50 for this compound: `CC(=NC(=N)NC(=N)N(C)C)c1ccccc1.CC(=NC(=N)NC(=N)N(C)C)c1ccccc1.O.O.O.O.O.O=S(=O)([O-])[O-].[Cu+2]`
Outgoing: 290

Incoming: Name the recorded IC50 for `CC(C)=NC(=N)NC(=N)N(C)C.CC(C)=NC(=N)NC(=N)N(C)C.O.O.O.O.O.O=S(=O)([O-])[O-].[Cu+2]` .
Outgoing: 460

###

Test system: α-glucosidase
Assay: α-glucosidase enzyme inhibition assay (starch substrate, anthrone reagent, 640 nm)
Format: biochemical
Details: 250 µg/mL, Table 4 (Met series)
measured.endpoint: % Inhibition (%)
Write the number in % without appending the unit.

Look over these answered cases.
CN(C)C(=N)NC(=N)N=C(c1ccccc1)c1ccccc1 [Met7]	27.42
C[C@H]1O[C@H](O[C@H]2[C@H](O)[C@@H](O)[C@@H](O[C@H]3[C@H](O)[C@@H](O)C(O)O[C@@H]3CO)O[C@@H]2CO)[C@H](O)[C@@H](O)[C@@H]1N[C@H]1C=C(CO)[C@@H](O)[C@H](O)[C@H]1O (stereo partly shown) [Acarbose, reference compound]	41.84
C=NC(=N)NC(=N)N(C)C [Met4]	17.49

Then this compound:
Incoming: Which % Inhibition value belongs to C/C(=N\C(=N)NC(=N)N(C)C)c1ccccc1 [Met6] ?
Outgoing: 16.41

###

Tested on: α-glucosidase
Test: α-glucosidase enzyme inhibition assay (starch substrate, anthrone reagent, 640 nm)
Type: biochemical
Settings: 500 µg/mL, Table 6 (MZn series)
Tag: MET if measured % Inhibition is not below 40%, NOT MET if it is.

Incoming: Is the recorded value of % Inhibition equal to or greater than 40% for this compound? CN(C)C(=N)NC(=N)N=Cc1ccccc1O.CN(C)C(=N)NC(=N)N=Cc1ccccc1O.O.O.O.O.O.O=S(=O)([O-])[O-].[Zn+2] [MZn2]
Outgoing: MET

Incoming: Say whether C=NC(=N)NC(=N)N(C)C.C=NC(=N)NC(=N)N(C)C.O.O.O.O.O.O=S(=O)([O-])[O-].[Zn+2] [MZn4] shows % Inhibition of 40% or more.
Outgoing: NOT MET

Incoming: Record CN(C)C(=N)NC(=N)N=C(c1ccccc1)C(O)c1ccccc1.CN(C)C(=N)NC(=N)N=C(c1ccccc1)C(O)c1ccccc1.O.O.O.O.O.O=S(=O)([O-])[O-].[Zn+2] (stereo not drawn) [MZn9] ; criterion: % Inhibition no lower than 40%. Met?
Outgoing: NOT MET

Incoming: Quick check: does CC(=NC(=N)NC(=N)N(C)C)c1ccccc1.CC(=NC(=N)NC(=N)N(C)C)c1ccccc1.O.O.O.O.O.O=S(=O)([O-])[O-].[Zn+2] [MZn6] have % Inhibition greater than or equal to 40%?
Outgoing: MET

Incoming: Answer whether % Inhibition of CN(C)C(=N)NC(=N)N=CC=Cc1ccccc1.CN(C)C(=N)NC(=N)N=CC=Cc1ccccc1.O.O.O.O.O.O=S(=O)([O-])[O-].[Zn+2] [MZn3] is greater than or equal to 40%.
Outgoing: MET

###

The following molecules are shown together with reported % Inhibition values.
System: α-amylase
Assay: α-amylase enzyme inhibition assay (starch, dinitro-salicylic acid, 540 nm)
Assay type: biochemical
Details: 500 µg/mL, Table 8 (MCu series)
State the answer as a number, implicitly in %.

Sample answers from the record:
COc1cc(C=NC(=N)NC(=N)N(C)C)ccc1O.COc1cc(C=NC(=N)NC(=N)N(C)C)ccc1O.O.O.O.O.O.O=S(=O)([O-])[O-].[Cu+2]	61.35
CN(C)C(=N)NC(=N)N=CC=Cc1ccccc1.CN(C)C(=N)NC(=N)N=CC=Cc1ccccc1.O.O.O.O.O.O=S(=O)([O-])[O-].[Cu+2]	38.37

Consider the record given below.
Incoming: α-amylase / % Inhibition / CN(C)C(=N)NC(=N)N=C(c1ccccc1)C(O)c1ccccc1.CN(C)C(=N)NC(=N)N=C(c1ccccc1)C(O)c1ccccc1.O.O.O.O.O.O=S(=O)([O-])[O-].[Cu+2] (stereo not drawn) : value?
Outgoing: 34.66

###

Tested on: α-amylase
Assay: α-amylase enzyme inhibition assay (starch, dinitro-salicylic acid, 540 nm)
Format: biochemical
Conditions: 500 µg/mL, Table 7 (Met series)
measured.endpoint: % Inhibition (%)
Report the figure in % without appending any unit label.

Consider the following illustrative entries.
CN(C)C(=N)NC(=N)N=C(c1ccccc1)c1ccccc1 [Met7]	34.45
C/C(=N\C(=N)NC(=N)N(C)C)c1ccccc1 [Met6]	33.35

Incoming: Request the reported % Inhibition associated with C=NC(=N)NC(=N)N(C)C [Met4]
Outgoing: 37.65

Incoming: Bench note: what % Inhibition did C[C@H]1O[C@H](O[C@H]2[C@H](O)[C@@H](O)[C@@H](O[C@H]3[C@H](O)[C@@H](O)C(O)O[C@@H]3CO)O[C@@H]2CO)[C@H](O)[C@@H](O)[C@@H]1N[C@H]1C=C(CO)[C@@H](O)[C@H](O)[C@H]1O (stereo partly shown) [Acarbose, reference compound] show?
Outgoing: 72.33

###

System: α-glucosidase
Assay: α-glucosidase enzyme inhibition assay (starch substrate, anthrone reagent, 640 nm)
Assay type: biochemical
Settings: 500 µg/mL, Table 6 (MZn series)
measured.endpoint: % Inhibition (%)
Give the value in % but do not write % after it.

C[C@H]1O[C@H](O[C@H]2[C@H](O)[C@@H](O)[C@@H](O[C@H]3[C@H](O)[C@@H](O)C(O)O[C@@H]3CO)O[C@@H]2CO)[C@H](O)[C@@H](O)[C@@H]1N[C@H]1C=C(CO)[C@@H](O)[C@H](O)[C@H]1O (stereo partly shown) [Acarbose, reference compound]	74.52
CN(C)C(=N)NC(=N)N=Cc1ccccc1.CN(C)C(=N)NC(=N)N=Cc1ccccc1.O.O.O.O.O.O=S(=O)([O-])[O-].[Zn+2]	62.48

Incoming: // lookup % Inhibition for `COc1cc(C=NC(=N)NC(=N)N(C)C)ccc1O.COc1cc(C=NC(=N)NC(=N)N(C)C)ccc1O.O.O.O.O.O.O=S(=O)([O-])[O-].[Zn+2]`
Outgoing: 70.37

Incoming: GET /values?readout=% Inhibition&item= `CN(C)C(=N)NC(=N)N=C(c1ccccc1)c1ccccc1.CN(C)C(=N)NC(=N)N=C(c1ccccc1)c1ccccc1.O.O.O.O.O.O=S(=O)([O-])[O-].[Zn+2]`
Outgoing: 37.61

###

Target: α-amylase
Test: α-amylase enzyme inhibition assay (starch, dinitro-salicylic acid, 540 nm)
Format: biochemical
Conditions: Table 9 (MZn series), read-out: IC50
measured.endpoint: IC50 (µM)
Your answer should be a plain number; it is taken to be in µM.

Here is how some molecules turned out for IC50.
CC(C)=NC(=N)NC(=N)N(C)C.CC(C)=NC(=N)NC(=N)N(C)C.O.O.O.O.O.O=S(=O)([O-])[O-].[Zn+2]	560
CN(C)C(=N)NC(=N)N=C(c1ccccc1)c1ccccc1.CN(C)C(=N)NC(=N)N=C(c1ccccc1)c1ccccc1.O.O.O.O.O.O=S(=O)([O-])[O-].[Zn+2]	250
CN(C)C(=N)NC(=N)N=Cc1ccccc1.CN(C)C(=N)NC(=N)N=Cc1ccccc1.O.O.O.O.O.O=S(=O)([O-])[O-].[Zn+2]	750

Incoming: Request: IC50, test system α-amylase, entry `C=NC(=N)NC(=N)N(C)C.C=NC(=N)NC(=N)N(C)C.O.O.O.O.O.O=S(=O)([O-])[O-].[Zn+2]`
Outgoing: 500

Incoming: # value lookup — system α-amylase, readout IC50, item CN(C)C(=N)NC(=N)N=C(c1ccccc1)C(O)c1ccccc1.CN(C)C(=N)NC(=N)N=C(c1ccccc1)C(O)c1ccccc1.O.O.O.O.O.O=S(=O)([O-])[O-].[Zn+2] (stereo not drawn)
Outgoing: 700

Cited source for all entries: paper PMC9919699
